These measurements were taken from patent US10941208B2.

- target-or-test-system: T1, soluble monomeric human MUC16 (hMUC16.mmh, last five SEA domains, SEQ ID: 1902) (Homo sapiens, UniProt Q8WXI7)
- T1 construct: mmh (myc-myc-hexahistidine)
- T1 sequence (Q8WXI7 with tags, fused parts or gaps): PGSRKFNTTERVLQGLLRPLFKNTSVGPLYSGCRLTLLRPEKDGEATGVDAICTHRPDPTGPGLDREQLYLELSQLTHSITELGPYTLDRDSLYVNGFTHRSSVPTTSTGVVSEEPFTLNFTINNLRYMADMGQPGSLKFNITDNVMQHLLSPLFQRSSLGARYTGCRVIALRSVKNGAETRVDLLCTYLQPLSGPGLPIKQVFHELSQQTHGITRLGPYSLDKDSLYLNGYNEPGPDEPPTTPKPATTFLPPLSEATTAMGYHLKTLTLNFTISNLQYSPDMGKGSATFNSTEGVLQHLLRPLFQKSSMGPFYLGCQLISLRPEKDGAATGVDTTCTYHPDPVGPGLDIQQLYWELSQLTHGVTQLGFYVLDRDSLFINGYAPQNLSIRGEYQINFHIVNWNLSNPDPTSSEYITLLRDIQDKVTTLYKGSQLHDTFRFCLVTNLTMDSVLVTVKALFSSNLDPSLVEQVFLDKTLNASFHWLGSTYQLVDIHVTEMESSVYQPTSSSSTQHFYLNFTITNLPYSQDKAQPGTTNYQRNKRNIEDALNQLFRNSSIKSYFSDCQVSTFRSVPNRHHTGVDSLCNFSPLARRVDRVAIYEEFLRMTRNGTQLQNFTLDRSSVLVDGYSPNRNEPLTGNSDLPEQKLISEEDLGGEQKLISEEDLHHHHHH
- assay-explanation: Surface plasmon resonance (BIACORE) binding to hMUC16 fragment at 25° C.
- condition-notes: Human Fc anti-MUC16 antibodies (H1H), 25° C., Table 5B
endpoint-label: ka (M⁻¹ s⁻¹)
Express it in M⁻¹ s⁻¹; write the number only.

Which ka value is on record for H1H8808P: anti-MUC16 antibody, human IgG1 Fc; HCVR/LCVR SEQ ID NOs: 130/138 (antibody, V domains shown) VH: QVQLVESGGGVVQPGRSLRLSCVASGFTFSNYGIHWVRQAPGKGLEWVAVISDDGSFKFYADSVKGRFTISRDNSKNTLYLQMNSLRVEDSAVYHCAKWQHNWNDGGFDYWGQGTLVTVSS VL: EIVLTQSPDTLSLSPGERATLSCRASQSLSSNYLAWYRQKPGQAPRLLIYGISSRATGIPDRFSGSGSGTDFTLTISRLEPEDFAVYYCQQYGSSPWTFGQGTKVEIK ?
4120
